target: UniProt:Q07889; assay: Ras-SOS interaction assay (HTRF); format: biochemical; conditions: K-RasG13D, read-out: IC50 value against SOS1
Sequence (Q07889 564-1049): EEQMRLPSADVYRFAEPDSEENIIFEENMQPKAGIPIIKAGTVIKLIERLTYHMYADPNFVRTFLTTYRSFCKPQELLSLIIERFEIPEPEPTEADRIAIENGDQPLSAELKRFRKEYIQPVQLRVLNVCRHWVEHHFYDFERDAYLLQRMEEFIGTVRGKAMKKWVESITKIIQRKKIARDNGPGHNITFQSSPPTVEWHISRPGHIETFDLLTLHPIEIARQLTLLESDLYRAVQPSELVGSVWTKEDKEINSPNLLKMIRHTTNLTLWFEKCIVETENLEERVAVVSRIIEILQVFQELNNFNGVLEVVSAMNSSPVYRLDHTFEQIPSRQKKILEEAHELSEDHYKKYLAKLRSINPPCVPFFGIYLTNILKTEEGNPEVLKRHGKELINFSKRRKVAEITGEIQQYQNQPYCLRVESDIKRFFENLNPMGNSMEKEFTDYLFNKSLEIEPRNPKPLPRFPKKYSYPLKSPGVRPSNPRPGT
Would you mind telling me the reported IC50 of each entry?

Field: IC50 (UniProt:Q07889). Entry: CC(C)N1CCN(c2cc3c(N[C@H](C)c4cccc(C(F)(F)F)c4F)ncnc3nc2Cl)CC1 [Compound 394] < 50 nM

Field: IC50 (UniProt:Q07889). Entry: C[C@@H](Nc1ncnc2nc(Cl)c(C3(C#N)CC3)cc12)c1cccc(C(F)(F)[C@@H](C)O)c1 [Compound 214] < 50 nM

Field: IC50 (UniProt:Q07889). Entry: C[C@@H](Nc1ncnc2nc(Cl)c(N3CCS(=O)(=O)CC3)cc12)c1cccc(C(F)F)c1F [Compound 261] < 50 nM

Field: IC50 (UniProt:Q07889). Entry: CCN1CCN(c2cc3c(N[C@H](C)c4cccc(C(F)F)c4F)nc(C)nc3nc2OCCN(C)C)CC1 [Compound 255] < 50 nM

Field: IC50 (UniProt:Q07889). Entry: COc1nc2nc(C)nc(N[C@H](C)c3cccc(C(F)(F)CO)c3F)c2cc1C1CCS(=O)(=O)CC1 [Compound 174] < 50 nM

Field: IC50 (UniProt:Q07889). Entry: Cc1nc(N[C@H](C)c2cccc(C(F)F)c2F)c2cc(N3CCN(C)CC3)c(OCCN(C)C)nc2n1 [Compound 371] < 50 nM

Field: IC50 (UniProt:Q07889). Entry: CC(C)N1CCC(c2cc3c(N[C@H](C)c4cccc(C(F)(F)F)c4F)ncnc3nc2Cl)CC1 [Compound 384] < 50 nM

Field: IC50 (UniProt:Q07889). Entry: COc1nc2nc(C)nc(N[C@H](C)c3cccc(C(F)(F)C4CCN(C(C)C)CC4)c3F)c2cc1N1CCN(C(C)C)CC1 [Compound 163] < 50 nM

Field: IC50 (UniProt:Q07889). Entry: COc1nc2nc(C)nc(N[C@H](C)c3cccc(C(F)(F)CCC4CN(C)C4)c3F)c2cc1C1(C#N)CC1 [Compound 177] < 50 nM

Field: IC50 (UniProt:Q07889). Entry: C[C@@H](Nc1ncnc2nc(Cl)c(C3(C#N)CC3)cc12)c1cccc(C(F)(F)CO)c1F [Compound 362] < 50 nM

Field: IC50 (UniProt:Q07889). Entry: COc1nc2ncnc(N[C@H](C)c3cccc(C(F)(F)F)c3F)c2cc1N1CCN(C2CCOCC2)CC1 [Compound 166] < 50 nM

Field: IC50 (UniProt:Q07889). Entry: COc1nc2nc(C)nc(N[C@H](C)c3cccc(CC(F)F)c3F)c2cc1C1CCS(=O)(=O)CC1 [Compound 147] < 50 nM

Field: IC50 (UniProt:Q07889). Entry: COc1nc2nc(CCN3CCC3)nc(N[C@H](C)c3cccc(C(C)(F)F)c3F)c2cc1C1(C#N)CC1 [Compound 425] < 50 nM

Field: IC50 (UniProt:Q07889). Entry: COc1nc2nc(C)nc(N[C@H](C)c3cccc(C(F)(F)C4CCN(C(C)C)CC4)c3F)c2cc1C1CCS(=O)(=O)CC1 [Compound 379] < 50 nM

Field: IC50 (UniProt:Q07889). Entry: Cc1nc(N[C@H](C)c2cccc(C(F)F)c2F)c2cc(C3(C#N)CC3)c(OC3CCN(C)CC3)nc2n1 [Compound 232] < 50 nM

Field: IC50 (UniProt:Q07889). Entry: CC(C)N1CCN(c2cc3c(N[C@H](C)c4cccc(C(F)F)c4F)ncnc3nc2OC2COC2)CC1 [Compound 413] < 50 nM

Field: IC50 (UniProt:Q07889). Entry: COc1nc2nc(C)nc(N[C@H](C)c3cccc(C(F)(F)C(C)(C)O)c3)c2cc1N1CCN(C(C)C)CC1 [Compound 325] < 50 nM

Field: IC50 (UniProt:Q07889). Entry: Cc1nc(N[C@H](C)c2cccc(C(F)(F)CO)c2F)c2cc(C3(C#N)CC3)c(N3CCN(C(C)C)CC3)nc2n1 [Compound 347] < 50 nM

Field: IC50 (UniProt:Q07889). Entry: Cc1nc(N[C@H](C)c2cccc(C(F)F)c2F)c2cc(C3CCS(=O)(=O)CC3)c(Cl)nc2n1 [Compound 389] < 50 nM

Field: IC50 (UniProt:Q07889). Entry: COc1nc2ncnc(N[C@H](C)c3cccc(C(F)(F)[C@H](C)O)c3)c2cc1C1(C#N)CC1 [Compound 266] < 50 nM

Field: IC50 (UniProt:Q07889). Entry: Cc1nc(N[C@H](C)c2cccc(C(F)F)c2F)c2cc(C3CCS(=O)(=O)CC3)c(OC3CN(C)C3)nc2n1 [Compound 191] < 50 nM

Field: IC50 (UniProt:Q07889). Entry: Cc1nc(N[C@H](C)c2cccc(C(F)F)c2F)c2cc(N3CCN(C)CC3)c(OCC3COC3)nc2n1 [Compound 397] < 50 nM

Field: IC50 (UniProt:Q07889). Entry: CCN1CCC(c2cc3c(N[C@H](C)c4cccc(C(F)(F)F)c4C)ncnc3nc2OC)CC1 [Compound 353] < 50 nM

Field: IC50 (UniProt:Q07889). Entry: COc1nc2nc(C)nc(N[C@H](C)c3cccc(C(F)(F)C(C)(C)OC4CNC4)c3F)c2cc1N1CCN(C(C)C)CC1 [Compound 243] < 50 nM

Field: IC50 (UniProt:Q07889). Entry: COc1nc2nc(C)nc(N[C@H](C)c3cccc(C(F)(F)F)c3C)c2cc1C1CCN(C(C)C)CC1 [Compound 236] < 50 nM

Field: IC50 (UniProt:Q07889). Entry: COc1nc2ncnc(N[C@H](C)c3cccc(C(F)(F)F)c3C)c2cc1C1CCS(=O)(=O)CC1 [Compound 373] < 50 nM

Field: IC50 (UniProt:Q07889). Entry: COc1nc2nc(C)nc(N[C@H](C)c3cccc(C(F)(F)F)c3F)c2cc1C1CCN(C2CCOCC2)CC1 [Compound 344] < 50 nM

Field: IC50 (UniProt:Q07889). Entry: Cc1nc(N[C@H](C)c2cccc(C(F)(F)[C@H](C)O)c2F)c2cc(C3(C#N)CC3)c(Cl)nc2n1 [Compound 258] < 50 nM

Field: IC50 (UniProt:Q07889). Entry: COc1nc2nc(C)nc(N[C@H](C)c3cccc(C(F)(F)C(C)(C)O)c3)c2cc1C1CCS(=O)(=O)CC1 [Compound 173] < 50 nM
